- System: HCT-15
- test: Cytotoxicity against human HCT15 cells after 72 hrs by SRB assay
- Type: functional, cell-based
- condition-label: HCT-15, 72 h
assay-endpoint: log10 IC50 (log10 of the value in µM)
All values: log10 IC50 [µM].

[ask] Could you tell me which log10 IC50 is on file for COc1ccc2c3c(c4cc(OC)c(OC)cc4c2c1)CC1(CO)CCCN1C3 (racemic) ?
[reply] -0.75

Could you tell me log10 IC50 for each of these compounds? They are listed below.
1. COc1ccc2c3c(c4cc(OC)c(OC)cc4c2c1)C[C@@]1(CO)CCCN1C3
2. COc1ccc2c3c(c4cc(OC)c(OC)cc4c2c1)CC1CCCN1C3 (racemic) [(+/-)-ANTOFINE]
3. COc1ccc2c3c(c4cc(OC)c(OC)cc4c2c1)C[C@]1(CO)CCCN1C3
4. COc1ccc2c3c(c4cc(OC)c(OC)cc4c2c1)C[C@H]1CCCN1C3 [(-)-ANTOFINE]

[reply]
-0.80
-1.60
0.15
-1.89

###

- Tested on: SK-HEP1
- test: Cytotoxicity against human SKHEP1 cells after 72 hrs by SRB assay
- Format: functional, cell-based
- condition-label: SK-HEP1, 72 h
Assign log10 IC50 to each entry below.
All values: log10 IC50 [nM].

Could you tell me log10 IC50 for each of these molecules? They are listed below.
1. COc1ccc2c3c(c4cc(OC)c(OC)cc4c2c1)C[C@H]1CCCN1C3 [(-)-ANTOFINE]
2. COc1ccc2c3c(c4cc(OC)c(OC)cc4c2c1)CC1CCCN1C3 (racemic) [(+/-)-ANTOFINE]
3. COc1ccc2c3c(c4cc(OC)c(OC)cc4c2c1)C[C@]1(CO)CCCN1C3
4. COc1ccc2c3c(c4cc(OC)c(OC)cc4c2c1)C[C@@]1(CO)CCCN1C3
5. COc1ccc2c3c(c4cc(OC)c(OC)cc4c2c1)CC1(CO)CCCN1C3 (racemic)

[reply]
1: 0.90; 2: 1.20; 3: 2.73; 4: 1.78; 5: 2.00

###

- System: A549
- test: Cytotoxicity against human paclitaxel-resistant A549 cells after 72 hrs by SRB assay
- Format: functional, cell-based
- condition-label: A549, 72 h
Assign pIC50 to each entry below.
Numbers only, as −log10 of the molar value.

[ask] Could you tell me which pIC50 is on file for COc1ccc2c3c(c4cc(OC)c(OC)cc4c2c1)CC1CCCN1C3 (racemic) [(+/-)-ANTOFINE] ?
[reply] 7.66

[ask] Could you tell me which pIC50 is on file for COc1ccc2c3c(c4cc(OC)c(OC)cc4c2c1)C[C@]1(CO)CCCN1C3 ?
[reply] 5.44

[ask] Could you tell me which pIC50 is on file for COc1ccc2c3c(c4cc(OC)c(OC)cc4c2c1)C[C@@]1(CO)CCCN1C3 ?
[reply] 6.70

[ask] Could you tell me which pIC50 is on file for COc1ccc2c3c(c4cc(OC)c(OC)cc4c2c1)C[C@H]1CCCN1C3 [(-)-ANTOFINE] ?
[reply] 7.74

Further cases:
[ask] Could you tell me which pIC50 is on file for COc1ccc2c3c(c4cc(OC)c(OC)cc4c2c1)CC1(CO)CCCN1C3 (racemic) ?
[reply] 6.69

###

- test: Thermodynamic solubility of the compound in 1:1 mixture of phosphate buffer:ethanol
- Assay type: physicochemical
- condition-label: 1:1 mixture of phosphate buffer:ethanol; read-out: Therm_solubility
assay-endpoint: solubility thermodynamic (µg/mL)
Give bare numbers, in µg/mL.

[ask] Could you tell me which solubility thermodynamic is on file for COc1ccc2c3c(c4cc(OC)c(OC)cc4c2c1)CC1(CO)CCCN1C3 (racemic) ?
[reply] 1390

###

- test: Thermodynamic solubility of the compound in phosphate buffer at pH 7.4
- Format: physicochemical
- condition-label: read-out: Therm_solubility
assay-endpoint: solubility thermodynamic

Could you tell me solubility thermodynamic for each of these molecules? They are listed below.
1. COc1ccc2c3c(c4cc(OC)c(OC)cc4c2c1)CC1(CO)CCCN1C3 (racemic)
2. COc1ccc2c3c(c4cc(OC)c(OC)cc4c2c1)C[C@H]1CCCN1C3 [(-)-ANTOFINE]

[reply]
656 µg/mL
< 1 µg/mL
